Consider the following compounds and their measured melting point readings.

>>> val("COc1ccc(NC(=S)NN=Cc2c(-c3ccc(Cl)cc3)[nH]c3ccccc23)cc1")
"230 to 232 °C"
>>> val("OCc1ccc(OC2CCOCC2)cc1")
"81.5 to 82.5 °C"
>>> val("O=Cc1cccc(-c2ncccn2)c1")
"98 to 100 °C"
>>> val("O=C1Nc2ccccc2C=NC2CCCCC2N=Cc2ccccc2NC1=O (stereo not drawn)")
"223 to 225 °C"
>>> val("CCC(C)/N=C(\\C)c1c(O)c2ccccc2n(-c2ccccc2)c1=O (stereo not drawn)")
"193 to 194 °C"
>>> val("NNC(=O)c1csc(CS(=O)(=O)c2ccc(Cl)cc2)n1")
"206 to 207 °C"
>>> val("CCCCc1c(C)nc(NC(=O)NS(=O)(=O)c2cccs2)nc1Cl")
"188 to 189 °C"
>>> val("NC(=S)c1cccc(I)c1")
"120 to 124 °C"

Form field: reported melting point of `CCOC(=O)C1CCN(c2ccc(C#N)cc2)CC1` 67 to 68 °C

Same again, this time with `O=c1oc(=O)c2cc3c(=O)oc(=O)c3cc12` 283 to 287 °C

Same again, this time with `O=C(Nc1c[nH]c(=O)[nH]c1=O)C(F)(F)C(F)(F)C(F)(F)C(F)(F)C(F)(F)C(F)(F)C(F)(F)C(F)(F)F` 250 to 252 °C

Same again, this time with `O=C(O)c1ccc2sccc2c1` 213 to 214 °C

Same again, this time with O=C1Nc2ccccc2CCC1Br (stereo not drawn) 164 to 168 °C

Same again, this time with `Cc1cccc(OCC(=O)O)c1C` 186 to 190 °C

Same again, this time with `Cc1cc(C(=O)O)c(C)n1C1CC1` 178 to 185 °C

Same again, this time with `O=C(Cl)c1cc2cc(Br)ccc2o1` 106 to 107 °C

Same again, this time with `NCCSc1cc(C(F)(F)F)nc2ccccc12` 97 to 99 °C

Same again, this time with `N#Cc1cccc(CS(=O)(=O)Cl)c1` 100 to 102 °C
